Observed pKi for UniProt Q00987, reported per entry below.
Would you please state pKi, meaning minus log10 of the concentration in mol/L, as a bare number?

The examples below pair each entry with its known result.
{"columns": ["compound", "pKi"],
 "data": [
  ["COC(=O)C(c1ccc(Cl)cc1)N1C(=O)c2cc(C)ccc2NC(=S)C1c1ccc(Cl)cc1 (stereo unspecified)", 4.42],
  ["CCOC(=O)CSC1=Nc2cc(OC)ccc2C(=O)N(C(C(=O)OC)c2ccc(Cl)cc2)C1c1ccc(Cl)cc1 (stereo unspecified)", 4.68],
  ["COC(=O)C(c1ccc(Cl)cc1)N1C(=O)c2ccc(Cl)cc2NC(=S)C1c1ccc(Cl)cc1 (stereo unspecified)", 5.86],
  ["COC(=O)C(c1ccc(Cl)cc1)N1C(=O)c2ccc(Cl)cc2NC(=S)C1c1ccc(OC)cc1 (stereo unspecified)", 4.92],
  ["COC(=O)C(c1ccc(F)cc1)N1C(=O)c2ccc(C(F)(F)F)cc2NC(=S)C1c1ccc(Cl)cc1 (stereo unspecified)", 5.52],
  ["COC(=O)C(c1ccc(Cl)cc1)N1C(=O)c2ccc(Br)cc2NC(=S)C1c1ccc(Cl)cc1 (stereo unspecified)", 5.40]
]}

### Prompt Param readout = pKi; param system = UniProt Q00987; param query = COC(=O)C(c1ccc(Cl)cc1)N1C(=O)c2cc(Cl)ccc2NC(=S)C1c1ccc(Cl)cc1 (stereo unspecified) ; response: value
### Response 6.14

### Prompt Param readout = pKi; param system = UniProt Q00987; param query = COC(=O)C(c1ccc(F)cc1)N1C(=O)c2ccc(Cl)cc2NC(=S)C1c1ccc(F)cc1 (stereo unspecified) ; response: value
### Response 5.76

----------
pKi: −log10 of the molar value.
Observed pKi for E3 ubiquitin-protein ligase Mdm2 (Homo sapiens, UniProt Q00987), reported per entry below.

The examples below pair each entry with its known result.
{"columns": ["compound", "pKi"],
 "data": [
  ["COC(=O)C(c1ccc(Cl)cc1)N1C(=O)c2ccc(Cl)cc2N=C(SC)C1c1ccc(Cl)cc1 (stereo not drawn)", "< 4.00"],
  ["COC(=O)C(c1ccc(Cl)cc1)N1C(=O)c2cccc(C)c2NC(=S)C1c1ccc(Cl)cc1 (stereo not drawn)", "< 4.00"],
  ["COC(=O)C(c1ccc(Cl)cc1)N1C(=O)c2ccc(OC)cc2NC(=S)C1c1ccc(Cl)cc1 (stereo not drawn)", "< 4.00"],
  ["COC(=O)C(c1ccc(Cl)cc1)N1C(=O)c2cc(F)c(F)cc2NC(=S)C1c1ccc(Cl)cc1 (stereo not drawn)", "< 4.00"],
  ["COC(=O)C(c1ccc(Cl)cc1)N1C(=O)c2cccc(Cl)c2NC(=S)C1c1ccc(Cl)cc1 (stereo not drawn)", "< 4.00"],
  ["COC(=O)C(c1ccc(Cl)cc1)N1C(=O)c2cccc(OC)c2NC(=S)C1c1ccc(Cl)cc1 (stereo not drawn)", 5.09],
  ["COC(=O)C(c1ccc(Cl)cc1)N1C(=O)c2ccc(NCc3ccc(C(F)(F)F)cc3)cc2NC(=S)C1c1ccc(Cl)cc1 (stereo not drawn)", 5.17]
]}

### Prompt Param readout = pKi; param system = E3 ubiquitin-protein ligase Mdm2 (Homo sapiens, UniProt Q00987); param query = COC(=O)C(c1ccc(F)cc1)N1C(=O)c2ccc(F)cc2NC(=S)C1c1ccc(Cl)cc1 (stereo not drawn) ; response: value
Sequence (Q00987 whole entry): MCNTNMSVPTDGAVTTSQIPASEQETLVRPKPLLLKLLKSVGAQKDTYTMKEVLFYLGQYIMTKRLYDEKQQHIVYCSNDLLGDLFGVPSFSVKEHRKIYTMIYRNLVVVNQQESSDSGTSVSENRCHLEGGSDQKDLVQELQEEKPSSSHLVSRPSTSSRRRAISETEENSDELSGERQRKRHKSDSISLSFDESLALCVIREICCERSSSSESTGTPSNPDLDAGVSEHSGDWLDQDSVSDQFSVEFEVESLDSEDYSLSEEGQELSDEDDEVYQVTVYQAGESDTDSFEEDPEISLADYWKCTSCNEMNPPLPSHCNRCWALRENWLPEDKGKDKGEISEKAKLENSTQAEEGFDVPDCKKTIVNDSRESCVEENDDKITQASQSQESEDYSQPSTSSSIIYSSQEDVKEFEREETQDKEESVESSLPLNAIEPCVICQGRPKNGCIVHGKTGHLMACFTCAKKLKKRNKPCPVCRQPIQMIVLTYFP
### Response 5.98
